Dear all, I have gathered published pIC50 values for SYK kinase (Homo sapiens, UniProt P43405); the list follows.
pIC50: −log10 of the molar value.

These recorded examples may help you get a feel for the data.
Return pIC50 measured with SYK kinase (Homo sapiens, UniProt P43405) given this compound: `CN(C)c1ccc(-c2cc3nccnc3c(OC[C@@H]3CN(C(=O)C(F)F)CCO3)n2)cc1F`
7.22

Return pIC50 measured with SYK kinase (Homo sapiens, UniProt P43405) given this compound: `O=C(C(F)F)N1CCO[C@H](COc2nc(-c3ccc(C4CCOCC4)cc3)cc3nccnc23)C1`
7.01

Return pIC50 measured with SYK kinase (Homo sapiens, UniProt P43405) given this compound: `CC1(C)C(=O)Nc2cc(Nc3nc4c(N5CC[C@@]6(CC(=O)NC6=O)C5)nccn4n3)ccc21`
> 7.00

Return pIC50 measured with SYK kinase (Homo sapiens, UniProt P43405) given this compound: `Cc1cc(Nc2nc3cncc(-c4cnn(C)c4)n3n2)ccc1OC(F)(F)F`
5.30 to 6.00

Further cases:
Return pIC50 measured with SYK kinase (Homo sapiens, UniProt P43405) given this compound: `COc1cc(Nc2cc(Oc3ccc(NC(=O)Nc4cc(C(C)(C)C)cc(NS(C)(=O)=O)c4OC)c4ccccc34)ccn2)cc(C(=O)NCCCN2CCOCC2)c1`
6.48

Return pIC50 measured with SYK kinase (Homo sapiens, UniProt P43405) given this compound: `CCOC(=O)CO[C@H]1CNc2cc(Nc3ncc(C(N)=O)c(NC4CC4)n3)ccc2OC1`
7.00 to 8.00

Return pIC50 measured with SYK kinase (Homo sapiens, UniProt P43405) given this compound: `CC1(C)C(=O)Nc2cc(Nc3nc4c(-c5c[nH]c6ccccc56)nccn4n3)ccc21`
> 7.00

Return pIC50 measured with SYK kinase (Homo sapiens, UniProt P43405) given this compound: `N[C@H]1COCC[C@H]1Nc1nc(-c2cc(F)cs2)c2c(c1F)CNC2=O`
8.30

Return pIC50 measured with SYK kinase (Homo sapiens, UniProt P43405) given this compound: `COc1ccc(C#N)cc1-c1cc2nccc(-c3cc[nH]n3)c2o1`
> 7.00

Return pIC50 measured with SYK kinase (Homo sapiens, UniProt P43405) given this compound: `COCCCn1cc(Nc2nc(-c3cnn(C)c3)nc3cn[nH]c23)cn1`
6.00 to 7.00

Return pIC50 measured with SYK kinase (Homo sapiens, UniProt P43405) given this compound: CC(C)C1C(=O)NCCN1c1ncc(-c2cccc(Nc3nccc(N4CCN(C)CC4)n3)c2)o1 (centres unmarked)
5.00 to 6.00

Return pIC50 measured with SYK kinase (Homo sapiens, UniProt P43405) given this compound: `c1ccc(-n2cc(Nc3nc(-c4ccc5cn[nH]c5c4)nc4cn[nH]c34)cn2)nc1`
6.00 to 7.00

---

pIC50: −log10 of the molar value.
Dear all, I have gathered published pIC50 values for SYK kinase (Homo sapiens, UniProt P43405); the list follows.

For `Brc1ccc2c(c1)nc(Nc1cnn(C3CCOCC3)c1)c1n[nH]cc12` , what is its reported pIC50?
7.00 to 8.00

For c1cc(N2CCOCC2)ccc1Nc1nc(C2COCCO2)nc2cn[nH]c12 (stereo not drawn) , what is its reported pIC50?
6.00 to 7.00

For CC(C)C(C)n1cc(Nc2nc(-c3ccoc3)nc3cn[nH]c23)cn1 (stereo not drawn) , what is its reported pIC50?
7.00 to 8.00

For NC(=O)C1C2C=CC(C2)C1Nc1nc(Nc2ccc(OCCN3CCCC3)c(Cl)c2)nc2[nH]cnc12 (racemic) , what is its reported pIC50?
> 5.30

We now examine a further compound.
For `COc1ccc(C(N)=O)cc1-c1cc2nccc(-c3cccc(C(=O)N[C@@H]4CCCC[C@@H]4N)c3)c2o1` , what is its reported pIC50?
5.52 to 6.52
